What follows is literature data on pKi for UniProt Q9Y5Z0.
// field semantics: pKi = negative decimal log of concentration (mol/L)

The cases that follow already have their pKi on record.
Prompt: Param readout= pKi; system= UniProt Q9Y5Z0; entry= "COc1ccc(C(=O)Nc2ccc(F)c([C@]3(C)CS(=O)(=O)C4(CN(S(C)(=O)=O)C4)C(=N)N3)c2)nc1" ; returns value.
Completion: 8.64

Prompt: Param readout= pKi; system= UniProt Q9Y5Z0; entry= "CC1(C)C(=N)N[C@@]2(CCOc3ccc(NC(=O)c4cn5cc(C#N)ccc5n4)cc32)CS1(=O)=O" ; returns value.
Completion: 6.80

Prompt: Param readout= pKi; system= UniProt Q9Y5Z0; entry= "CN1CC2(C1)C(=N)N[C@](C)(c1cc(NC(=O)c3ccc(F)cn3)ccc1F)CS2(=O)=O" ; returns value.
Completion: 8.92

Prompt: Param readout= pKi; system= UniProt Q9Y5Z0; entry= "COC[C@H]1C[C@H]2C(=O)N(C)C(=N)N[C@@]2(c2cc(OCC3CC3)c(F)cc2F)CO1" ; returns value.
Completion: 7.09

Now look at this one.
Prompt: Param readout= pKi; system= UniProt Q9Y5Z0; entry= "C[C@@]1(c2sc(-c3cccc(C#N)c3)cc2Cl)Cc2ncncc2C(=N)N1" ; returns value.
Completion: 7.82
